Data provenance is patent US5405864A.

- assay.info: toxicity in mice of the Small Cell Lung Carcinoma Xenograft Assay
- Assay type: in vivo, Female athymic nude mice
- test.context: mouse, in vivo, ip; after 6 days; read-out: chronic LD50

{"record.smiles": "N=C(N)SCCCn1c(-c2cc3ccccc3s2)c(C2=CC(=O)NC2=O)c2ccccc21", "LD50 at 144 h": "~20 mg/kg"}
